Parameter MIC50: see the listing below.
Tested on: Aspergillus fumigatus
Experiment: Antifungal activity against Aspergillus fumigatus ATCC 9197 grown as biofilm on CFBE41o cell after 24 to 48 hrs by XTT assay
Assay type: functional
Numbers only here, please. The scale is µg/mL.

CCC(C)n1ncn(-c2ccc(N3CCN(c4ccc(OCC5COC(Cn6cncn6)(c6ccc(Cl)cc6Cl)O5)cc4)CC3)cc2)c1=O (stereo unspecified)
1
C[C@@H](c1ncncc1F)[C@](O)(Cn1cncn1)c1ccc(F)cc1F
1
CC[C@@H]([C@H](C)O)n1ncn(-c2ccc(N3CCN(c4ccc(OC[C@@H]5CO[C@@](Cn6cncn6)(c6ccc(F)cc6F)C5)cc4)CC3)cc2)c1=O
1

For the next question, use this molecule.
**Query** Can you look up the measured MIC50 of `C[C@@H]1[C@H](O)[C@@H](C)/C=C/C=C/C=C/C=C/C=C/C=C/C=C/[C@H](O[C@@H]2O[C@H](C)[C@@H](O)[C@H](N)[C@@H]2O)C[C@@H]2O[C@](O)(C[C@@H](O)C[C@@H](O)[C@H](O)CC[C@@H](O)C[C@@H](O)CC(=O)O[C@H]1C)C[C@H](O)[C@H]2C(=O)O` for me?
**Result** 4

---

Test system: Aspergillus fumigatus
Assay: Antifungal activity against Aspergillus fumigatus ATCC 9197 grown as planktonic cell on CFBE41o cell after 48 hrs by broth microdilution method
Assay type: functional
Details: ATCC 9197, 48 h
*1 amine or outer side, *2 acyl side, *3 side chain or, on linkers, in order; H or OH if unused. Where a SMILES comes first, the peptide text is derived from it. Bridges are numbered along the chain shown (N, C = ends). [ ]: non-standard residue; d: D form. The star is where a group is joined. hTyr(3S-OH,4S-OH,3'-OSO3H) = N[C@H](C(=O)O)[C@H](O)[C@@H](O)c1ccc(O)c(OS(=O)(=O)O)c1; Orn(4R-OH,5R-OH) = O=C([C@H](C[C@@H](O)[C@@H](O)N[*:3])N[*:1])[*:2]; Pro(3S-OH,4S-Me) = C[C@H]1CN[C@H](C(=O)O)[C@H]1O; X1 = CCCCCOc1ccc(-c2cc(-c3ccc(C(=O)*)cc3)no2)cc1; Gln(3R-OH) = NC(=O)C[C@@H](O)[C@H](N)C(=O)O; Hyp = O=C(O)[C@@H]1C[C@@H](O)CN1
OBSERVATION_TYPE: MIC90

CCC(C)n1ncn(-c2ccc(N3CCN(c4ccc(OCC5COC(Cn6cncn6)(c6ccc(Cl)cc6Cl)O5)cc4)CC3)cc2)c1=O (stereo unspecified)
0.25 µg/mL
CCCCCOc1ccc(-c2cc(-c3ccc(C(=O)N[C@H]4C[C@@H](O)[C@@H](O)NC(=O)[C@@H]5[C@@H](O)[C@@H](C)CN5C(=O)[C@H]([C@H](O)CC(N)=O)NC(=O)[C@H]([C@H](O)[C@@H](O)c5ccc(O)c(OS(=O)(=O)O)c5)NC(=O)[C@@H]5C[C@@H](O)CN5C(=O)[C@H]([C@@H](C)O)NC4=O)cc3)no2)cc1 [MICAFUNGIN] (X1-[Orn(4R-OH,5R-OH)]T[Hyp][hTyr(3S-OH,4S-OH,3'-OSO3H)][Gln(3R-OH)][Pro(3S-OH,4S-Me)]; lactam 1-C)
1 µg/mL
CC[C@@H]([C@H](C)O)n1ncn(-c2ccc(N3CCN(c4ccc(OC[C@@H]5CO[C@@](Cn6cncn6)(c6ccc(F)cc6F)C5)cc4)CC3)cc2)c1=O
0.125 µg/mL

**Query** Can you look up the measured MIC90 of `C[C@@H]1[C@H](O)[C@@H](C)/C=C/C=C/C=C/C=C/C=C/C=C/C=C/[C@H](O[C@@H]2O[C@H](C)[C@@H](O)[C@H](N)[C@@H]2O)C[C@@H]2O[C@](O)(C[C@@H](O)C[C@@H](O)[C@H](O)CC[C@@H](O)C[C@@H](O)CC(=O)O[C@H]1C)C[C@H](O)[C@H]2C(=O)O` for me?
**Result** 1 µg/mL

**Query** Can you look up the measured MIC90 of `C[C@@H](c1ncncc1F)[C@](O)(Cn1cncn1)c1ccc(F)cc1F` for me?
**Result** 0.125 µg/mL

**Query** Can you look up the measured MIC90 of `CC[C@H](C)C[C@H](C)CCCCCCCCC(=O)N[C@H]1C[C@@H](O)[C@@H](NCCN)NC(=O)[C@@H]2[C@@H](O)CCN2C(=O)[C@H]([C@H](O)CCN)NC(=O)[C@H]([C@H](O)[C@@H](O)c2ccc(O)cc2)NC(=O)[C@@H]2C[C@@H](O)CN2C(=O)[C@H]([C@@H](C)O)NC1=O` for me?
**Result** 1 µg/mL
